# testedOn: fusion protein PRP
resultType: relative cleavage efficiency

OmpT protease variant OmpT D97S (protein) STETLSFTPDNINADISLGTLSGKTKERVYLAEEGGRKVSQLDWKFNNAAIIKGAINWDLMPQISIGAAGWTTLGSRGGNMVDQDWMDSSNPGTWTSESRHPDTQLNYANEFDLNIKGWLLNEPNYRLGLMAGYQESRYSFTARGGSYIYSSEEGFRDDIGSFPNGERAIGYKQRFKMPYIGLTGSYRYEDFELGGTFKYSGWVESSDNDEHYDPGKRITYRSKVKDQNYYSVAVNAGYYVTPNAKVYVEGAWNRVTNKKGNTSLYDHNNNTSDYSKNGAGIENYNFITTAGLKYTF; less than 3%
OmpT protease variant OmpT D97F (protein) STETLSFTPDNINADISLGTLSGKTKERVYLAEEGGRKVSQLDWKFNNAAIIKGAINWDLMPQISIGAAGWTTLGSRGGNMVDQDWMDSSNPGTWTFESRHPDTQLNYANEFDLNIKGWLLNEPNYRLGLMAGYQESRYSFTARGGSYIYSSEEGFRDDIGSFPNGERAIGYKQRFKMPYIGLTGSYRYEDFELGGTFKYSGWVESSDNDEHYDPGKRITYRSKVKDQNYYSVAVNAGYYVTPNAKVYVEGAWNRVTNKKGNTSLYDHNNNTSDYSKNGAGIENYNFITTAGLKYTF; less than 3%
